- System: SNB-19 CNS
- Procedure text: NCI tumour cell line growth inhibition, 48 h
Measured GI50 of individual entries

See these solved cases before continuing.
Smiles data | GI50
COc1cc(OC)c(C(=O)/C=C/c2cc3c(cc2OCc2ccccc2)OC(C)(C)CC3)cc1CC=C(C)C | 6.22 µM
COc1cc2nc(SCc3cc(OC)c(OC)c(OC)c3)n(Cc3ccccc3)c(=O)c2cc1OC | 5.4 µM

Q: Return GI50 measured with SNB-19 CNS given this compound: C=CCn1c(C)nc2ccc(Nc3nc(Nc4ccc(F)cc4)nc4ccccc34)cc21
A: 9 µM

----------
- System: SK-MEL-28 melanoma
- Procedure text: NCI tumour cell line growth inhibition, 48 h
Measured TGI by item

Compound | Measurement name | Data value
O=S(=O)(NC1=NCCN1C(=S)SN1CCn2c1nsc2=S)c1cccc2ccccc12 | TGI | > 100 µM
COc1cc2c(cc1OC)C(=O)N(c1ccc(O)cc1)C2=O | TGI | > 100 µM
CN(Cc1cnc2nc(N)nc(N)c2n1)c1ccc(C(=O)N[C@@H](CCC(=O)O)C(=O)O)cc1 | TGI | > 250 µM
OCc1ccc(N2CCc3cccc(F)c3C2)cc1Cl | TGI | > 79.7 µM
CCc1ccc(NC(=O)NC(=O)c2ccccc2[N+](=O)[O-])cc1Oc1ncc(Cl)cn1 | TGI | > 4.64 µM
CN(C(=O)Cc1ccccc1)n1cnn(CC(=O)OC(C)(C)C)c1=S | TGI | > 10 µM

Q: Which TGI value is on record for N/N=C1\C(=O)N(C2CCCCCC2)C(=O)C1C(=O)NC1CCCCCC1 (configuration not stated) ?
A: > 10 µM

Q: CCOC(=O)c1[nH]c(Br)c(-c2ccc(OC)c(OC)c2)c1Br , same question.
A: 20.3 µM

Q: // same read-out, input: COc1ccc(-c2cs/c(=N\N=C\c3ccc(O)cc3O)n2/N=C/c2ccc(O)cc2O)cc1
A: 4.15 µM
